Test: Biodistribution studies in HEK-uPAR xenograft-bearing nude mice
Conditions: female, CD1/nude, mouse, blood, 5 MBq (0.5 nmol), total radioactivity, 4 h p.i.; 5 MBq, 0.5 nmol; decay-corrected; average ± SD, n=3 animals
assay_metric: tissue uptake at 4 h (%ID/g)
// note: answer is a bare numeric in %ID/g

1) CC(C)C[C@H](NC(=O)[C@H](Cc1ccc(O)cc1)NC(=O)[C@@H](CCCNC(=N)N)NC(=O)[C@@H](CO)NC(=O)[C@H](Cc1ccccc1)NC(=O)[C@H](CC1CCCCC1)NC(=O)[C@H](CC(=O)O)NC(=O)[C@H](CCCCNC(=O)CCCc1ccc(I)cc1)NC(=O)CN1CCN(CC(=O)O)CCN(CC(=O)O)CCN(CC(=O)O)CC1)C(=O)N[C@@H](Cc1c[nH]c2ccccc12)C(=O)N[C@@H](CO)C(N)=O [[^177Lu]Lu-uPAR-01, metal not drawn] ... 16
2) CC(C)C[C@H](NC(=O)[C@H](Cc1ccc(O)cc1)NC(=O)[C@@H](CCCNC(=N)N)NC(=O)[C@@H](CO)NC(=O)[C@H](Cc1ccccc1)NC(=O)[C@H](CC1CCCCC1)NC(=O)[C@H](CC(=O)O)NC(=O)CCOCCOCCOCCOCCNC(=O)[C@H](CCCCNC(=O)CCCc1ccc(I)cc1)NC(=O)CN1CCN(CC(=O)O)CCN(CC(=O)O)CCN(CC(=O)O)CC1)C(=O)N[C@@H](Cc1c[nH]c2ccccc12)C(=O)N[C@@H](CO)C(N)=O [[^177Lu]Lu-uPAR-05, metal not drawn] ... 12

// next entry
Query: Name the recorded tissue uptake at 4 h for CC(C)C[C@H](NC(=O)[C@H](Cc1ccc(O)cc1)NC(=O)[C@@H](CCCNC(=N)N)NC(=O)[C@@H](CO)NC(=O)[C@H](Cc1ccccc1)NC(=O)[C@H](CC1CCCCC1)NC(=O)[C@H](CC(=O)O)NC(=O)CN1CCN(CC(=O)O)CCN(CC(=O)O)CCN(CC(=O)O)CC1)C(=O)N[C@@H](Cc1c[nH]c2ccccc12)C(=O)N[C@@H](CO)C(N)=O [[^177Lu]Lu-DOTA-AE105, metal not drawn, reference compound] .
Reply: 0.08
